PROTOCOL: chemical genetic growth profiling, strain panel (AID 1159580);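 note: tested at 20 µM; growth read once vehicle control cultures reached saturation at 30 °C; lower values mean less growth of the strain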
CONDITION: S. cerevisiae deletion strains, growth OD, locus YJL092W, strain hpr5
About 2,000 (36%) of roughly 5,500 compounds were called active. Inconclusive results (about 18%) are left out. Cut-off read from the data, not from the text of the source: active = normalized growth mostly below about 0.91 (no sharp cut-off); inconclusive = no clear call, values can overlap the other calls; inactive = mostly above about 0.92. The list shows a part of the results.
Output constraint: value belongs to TRUE = active, FALSE = inactive

Use the examples below as a reference point.
[[record]]
molecule = "CC12CCC(=O)C=C1CCc1ccccc12 (stereo unspecified)"
category = "FALSE"

[[record]]
molecule = "Cc1cc(N)c2ccccc2[n+]1CCCCCCCCCC[n+]1c(C)cc(N)c2ccccc21"
category = "TRUE"

[[record]]
molecule = "CC(=O)O[C@@H]1CC2C(C)(CC[C@H](O)C2(C)C)C2CC[C@]3(C)C(=CC(=O)O[C@H]3c3ccoc3)C21C (stereo partly specified)"
category = "FALSE"

[[record]]
molecule = "NCCCC(O)(P(=O)(O)O)P(=O)(O)O"
category = "FALSE"


-- ask # fetch the recorded call for CC(C)C[C@@H](NC(=O)OCC1c2ccccc2-c2ccccc21)C(=O)O here
-- reply FALSE

-- ask # fetch the recorded call for C[C@@H]1CCC2[C@](C)(CO)[C@@H](O)CC[C@]2(C)[C@@]12CC[C@@](CO)(CCO)O2 (stereo partly specified) here
-- reply FALSE

-- ask # fetch the recorded call for COc1cccc2c1CCC1=CC(=O)CC[C@@]12C here
-- reply FALSE

-- ask # fetch the recorded call for CC(C)(C)NCC(O)COc1cccc2c1C[C@H](O)[C@H](O)C2 (stereo partly specified) here
-- reply FALSE

-- ask # fetch the recorded call for CC(=O)N1CCN(c2ccc(OCC3CO[C@](Cn4ccnc4)(c4ccc(Cl)cc4Cl)O3)cc2)CC1 (stereo partly specified) here
-- reply TRUE
